- TGT: Microphthalmia-associated transcription factor (Homo sapiens) (UniProt O75030)
- Sequence (O75030 whole entry, looked up): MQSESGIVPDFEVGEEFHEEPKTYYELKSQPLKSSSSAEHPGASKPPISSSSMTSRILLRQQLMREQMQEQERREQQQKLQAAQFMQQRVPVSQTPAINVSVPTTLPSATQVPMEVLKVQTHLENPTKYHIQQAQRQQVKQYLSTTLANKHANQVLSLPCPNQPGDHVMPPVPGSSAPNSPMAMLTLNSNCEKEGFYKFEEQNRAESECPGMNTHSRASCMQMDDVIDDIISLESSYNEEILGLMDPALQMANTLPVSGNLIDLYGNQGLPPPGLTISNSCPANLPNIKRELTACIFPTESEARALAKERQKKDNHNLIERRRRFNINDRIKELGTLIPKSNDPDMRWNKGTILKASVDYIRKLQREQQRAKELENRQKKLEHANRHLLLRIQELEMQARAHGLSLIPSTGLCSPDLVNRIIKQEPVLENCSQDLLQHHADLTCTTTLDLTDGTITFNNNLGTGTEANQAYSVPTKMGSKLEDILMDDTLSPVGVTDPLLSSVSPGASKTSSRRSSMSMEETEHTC
- PROTOCOL_DESCRIPTION: MITF inhibitors by FRET titration, dose response, biochemical, high throughput (AID 1259375);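 note: FRET between CFP-tagged and YFP-tagged MITF protein partners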
- CONDITION_PARAMETERS: FRET biochemical assay, MITF inhibition
Calls of active or inactive are those of the source. The rule behind the calls is not given here.
MEASURED_QUANTITY: IC50

{"columns": ["COMPOUND", "DATA_VALUE"],
 "data": [
  ["NC(=O)/C(=C\\c1cccc([N+](=O)[O-])c1)NC(=O)c1ccc(Br)cc1", "> 6.48 µM (inactive)"],
  ["CC(=O)NS(=O)(=O)c1ccc(NC(=O)c2ccc([N+](=O)[O-])o2)cc1", "> 6.61 µM (inactive)"],
  ["COc1ccc(CN2CCN(Cc3cccc(Cl)c3)CC2)cc1Br", "> 6.11 µM (inactive)"],
  ["O=S(=O)(c1ccccc1C(F)(F)F)N1CCC(c2nc3ccccc3[nH]2)CC1", "> 6.48 µM (inactive)"],
  ["COc1cc2cc3c(N)c(C(=O)Nc4sc(C)c(C)c4C#N)sc3nc2cc1OC", "> 6.48 µM (inactive)"],
  ["O=C(Cn1cc(C(=O)c2ccco2)c2ccccc21)NCc1cccnc1", "> 6.48 µM (inactive)"],
  ["O=C(O)c1ccc(-n2cccc2)cc1Cl", "> 6.48 µM (inactive)"],
  ["O=C(OC1CCCC1=O)c1ccc(N2CCCC2=O)cc1 (stereo unspecified)", "> 7.22 µM (inactive)"],
  ["Cc1cc(C)n2nc(N)c(N)c2n1", "> 11.6 µM (inactive)"],
  ["Cc1noc(C2CN(C(=O)c3ccc(-n4cccc4)cc3)C2)n1", "> 6.48 µM (inactive)"],
  ["Cc1ccc([N+](=O)[O-])cc1S(=O)(=O)Nc1ccc(Nc2ncccc2[N+](=O)[O-])cc1", "> 6.64 µM (inactive)"]
]}

Values from PubChem BioAssay AID1259375
